Assay: Permeability across human Caco2 cell membrane
Type: ADME, cell-based
Details: Caco-2, read-out: permeability
Quick reference for Papp among some compounds
Use ×10⁻⁶ cm/s as the unit, but write only the number.

Task item: Any idea what Papp was measured for CC(C)[C@H](NC(=O)c1ccc(-c2ccc(Nc3nnc(Cc4ccccc4)s3)cc2)cc1)C(=O)O ?
Reply: 0.04

Task item: Form field: reported Papp of O=C(O)C[C@H]1CC[C@H](c2ccc(C(=O)Nc3nnc(Cc4ccccc4F)s3)cc2)CC1
Reply: 7.5

Task item: Sample O=C(O)C[C@H]1CC[C@H](c2ccc(C(=O)Nc3nnc(Cc4cccc(Cl)c4)s3)cc2)CC1 — what was its Papp?
Reply: 8

Task item: Papp lookup needed for O=C(O)C[C@H]1CC[C@H](c2ccc(C(=O)Nc3nnc(Cc4ccccc4)s3)cc2)CC1 , thanks.
Reply: 11.2

Continuing:
Task item: For the compound O=C(O)C[C@H]1CC[C@H](c2ccc(C(=O)Nc3nnc(Cc4cccc(F)c4)s3)cc2)CC1 , what Papp is on record?
Reply: 12

Provenance of the data: ChEMBL document CHEMBL2010778
